Molecular target: AURKC (human)
Experiment: radiometric filter-binding kinase assay, Kinase HotSpot
Details: compound 0.5 µM; ATP 10 µM
// reported residual activity per item
Give the quantity in %, number only.

Some compounds with known residual activity results, for comparison:
> print(dat)
                  compound.structure.string  experimental.value
1   N#C/C(=C\c1ccc(O)c(O)c1)C(=O)NCc1ccccc1                95.5
2  COc1ccc(C(=O)Nc2sc3c(c2C(N)=O)CCCC3)cc1OC                97.2
3               O=C1c2ccccc2-c2nc3nnnn3nc21                95.4

Data request: Using the record for c1ccc2c(-c3ccncc3)c[nH]c2c1 , state its measured residual activity.
Data returned: 93.1

Data request: Using the record for Cn1c2ccccc2c2c3c(c4c5ccccc5n(CCC#N)c4c21)CNC3=O , state its measured residual activity.
Data returned: 55.7

Data request: Using the record for COc1cc(Nc2c(C#N)cnc3cc(OCCCN4CCN(C)CC4)c(OC)cc23)c(Cl)cc1Cl , state its measured residual activity.
Data returned: 82.1

Data request: Using the record for COc1ccc2c(c1)c(C1=C(c3c[nH]c4ccccc34)C(=O)NC1=O)cn2CCCN(C)C , state its measured residual activity.
Data returned: 90.4

Data request: Using the record for COc1ccc2c(c1)/C(=C/c1cnc[nH]1)C(O)=N2 , state its measured residual activity.
Data returned: 67.8

Origin of measurements: the kinase profiling compilation of Christmann-Franck et al. (2016)
